tested on: HCC-2998 colon; test: NCI tumour cell line growth inhibition, 48 h
# reported TGI; entries follow
measurement.type: TGI

>>> measurement("CC1=NC(=Cc2ccc(O)cc2)C(=O)N1n1c(-c2ccccc2)nc2ccccc2c1=O")
"> 100 µM"
>>> measurement("COc1cc2c(cc1OC)C(O)[C@H](Br)C(C)(C)O2 (stereo partly specified)")
"> 100 µM"
>>> measurement("COc1ccc(-c2cc(-c3cccn3C)c(C#N)c(N)n2)cc1OC")
"> 100 µM"
>>> measurement("O=C1c2ccn(CCCCNC(CO)(CO)CO)c2C(=O)c2c1c(O)c1ccccc1c2O")
"0.515 µM"
>>> measurement("Nc1ccncc1/C=C1/C(=O)Nc2ccccc21")
"59.9 µM"
>>> measurement("CCOC(=O)C(N=Nc1ccc(S(N)(=O)=O)cc1)C(C)=O (stereo unspecified)")
"> 100 µM"
>>> measurement("COC(=O)C1=C(C)NC(C)=C(C(=O)OC)C1c1ccc(/[N+]([O-])=C/c2ccccc2)cc1")
"> 100 µM"
>>> measurement("O=C(C(=O)N1CCc2ccccc21)c1c[nH]c2ccccc12")
"> 10 µM"
>>> measurement("CC(=O)N(C(=O)CC(=O)N/N=C\\c1ccc(Br)c(N(CCC#N)CCC#N)c1)c1ccc(Cl)cc1")
"> 100 µM"
>>> measurement("O=C(CC(c1ccccc1)N1CCCCC1)c1ccccc1 (stereo unspecified)")
"15.6 µM"
>>> measurement("CN(C)C(=O)NCCN1CCCCCc2ccccc21")
"> 100 µM"
